Molecular target: T1, His-tagged human MET antigen (human, UniProt P08581 25-932)
T1 construct: Soluble antigen used as analyte in SPR; not shown: His tag
T1 sequence (P08581 25-932 limits assumed): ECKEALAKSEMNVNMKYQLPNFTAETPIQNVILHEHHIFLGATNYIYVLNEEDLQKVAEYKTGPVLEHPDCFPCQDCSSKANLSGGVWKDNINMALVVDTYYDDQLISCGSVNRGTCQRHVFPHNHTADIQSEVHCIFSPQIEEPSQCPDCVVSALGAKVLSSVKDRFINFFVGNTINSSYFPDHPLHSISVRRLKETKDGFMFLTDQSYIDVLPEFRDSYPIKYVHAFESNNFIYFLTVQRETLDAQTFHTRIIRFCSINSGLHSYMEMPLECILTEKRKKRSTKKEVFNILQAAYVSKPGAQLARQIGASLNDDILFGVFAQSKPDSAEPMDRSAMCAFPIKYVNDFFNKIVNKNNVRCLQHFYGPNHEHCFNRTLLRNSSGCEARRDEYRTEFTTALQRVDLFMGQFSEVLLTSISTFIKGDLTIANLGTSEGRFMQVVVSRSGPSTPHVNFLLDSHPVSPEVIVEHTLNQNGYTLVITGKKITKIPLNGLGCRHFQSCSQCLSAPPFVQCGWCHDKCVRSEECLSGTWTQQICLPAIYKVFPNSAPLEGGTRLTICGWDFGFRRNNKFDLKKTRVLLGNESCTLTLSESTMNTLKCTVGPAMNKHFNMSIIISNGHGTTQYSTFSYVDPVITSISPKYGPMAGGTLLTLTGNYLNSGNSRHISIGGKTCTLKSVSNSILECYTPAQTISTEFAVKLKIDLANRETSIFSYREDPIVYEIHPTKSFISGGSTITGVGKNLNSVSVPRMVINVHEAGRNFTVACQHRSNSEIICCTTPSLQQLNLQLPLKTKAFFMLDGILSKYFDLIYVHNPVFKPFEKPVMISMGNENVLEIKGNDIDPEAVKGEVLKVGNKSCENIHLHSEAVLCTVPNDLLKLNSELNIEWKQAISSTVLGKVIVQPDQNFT
Assay: SPR, Biacore 8K; antibody captured, His-tagged human MET antigen 6.25-400 nM as analyte; 1:1 Langmuir
quantity.measured: koff
Please make sure the unit comes right after the number.

{"columns": ["binder", "koff"],
 "data": [
  ["Anti-MET antibody A13 (antibody, human IgG1, kappa, V domains shown) VH: QVQLVQSGAEVKKPGASVKVSCEASGYTFTSYGFSWVRQAPGQGLEWMGWISASNGNTYYAQKLQGRVTMTTDTSTSSAYMELRSLRSDDTAVYYCARVYADYADYWGQGTLVTVSS VL: DIQMTQSPSSVSASVGDRVTITCRASQGINTWLAWYQQKPGKAPKLLIYAASSLKSGVPSRFSGSGSGADFTLTISSLQPEDFATYYCQQANSFPLTFGGGTKVEIKR", "0.000614 s⁻¹"],
  ["Antibody A13 T31V (antibody, human IgG1, kappa, V domains shown, Differs from antibody A13 only by T to V at position 31 of VL) VH: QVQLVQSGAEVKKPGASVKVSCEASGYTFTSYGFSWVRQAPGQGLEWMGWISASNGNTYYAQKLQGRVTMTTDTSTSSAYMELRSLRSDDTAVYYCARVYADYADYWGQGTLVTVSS VL: DIQMTQSPSSVSASVGDRVTITCRASQGINVWLAWYQQKPGKAPKLLIYAASSLKSGVPSRFSGSGSGADFTLTISSLQPEDFATYYCQQANSFPLTFGGGTKVEIKR", "0.00521 s⁻¹"],
  ["Antibody A13 N30Q (antibody, human IgG1, kappa, V domains shown, Differs from antibody A13 only by N to Q at position 30 of VL) VH: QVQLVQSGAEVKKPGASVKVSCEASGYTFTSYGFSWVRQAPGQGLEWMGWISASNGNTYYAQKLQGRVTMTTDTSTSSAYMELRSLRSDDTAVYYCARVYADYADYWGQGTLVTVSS VL: DIQMTQSPSSVSASVGDRVTITCRASQGIQTWLAWYQQKPGKAPKLLIYAASSLKSGVPSRFSGSGSGADFTLTISSLQPEDFATYYCQQANSFPLTFGGGTKVEIKR", "0.00146 s⁻¹"]
]}

State its koff for this binder: Antibody A13 N30T (antibody, human IgG1, kappa, V domains shown, Differs from antibody A13 only by N to T at position 30 of VL) VH: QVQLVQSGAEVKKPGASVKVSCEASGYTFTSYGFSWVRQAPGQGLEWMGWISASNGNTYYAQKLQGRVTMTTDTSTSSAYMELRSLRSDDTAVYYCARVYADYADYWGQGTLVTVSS VL: DIQMTQSPSSVSASVGDRVTITCRASQGITTWLAWYQQKPGKAPKLLIYAASSLKSGVPSRFSGSGSGADFTLTISSLQPEDFATYYCQQANSFPLTFGGGTKVEIKR
0.0018 s⁻¹
